Molecular target: T1, OX40 on OX40-overexpressing cells (OX40过表达细胞表面OX40) (UniProt P43489 29-277, limits assumed)
T1 construct: whole, on cells; The cell line and the construct of the overexpressing cells are not described; also called CD134; TNFRSF4
T1 sequence (looked up): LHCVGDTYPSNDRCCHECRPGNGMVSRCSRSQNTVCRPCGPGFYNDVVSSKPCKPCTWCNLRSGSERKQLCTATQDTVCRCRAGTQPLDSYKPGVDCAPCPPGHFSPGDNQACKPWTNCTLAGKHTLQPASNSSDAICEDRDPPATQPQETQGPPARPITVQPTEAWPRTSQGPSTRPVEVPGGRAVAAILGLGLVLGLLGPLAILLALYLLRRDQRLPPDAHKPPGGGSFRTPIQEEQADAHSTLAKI
Assay: flow cytometry, hybridoma supernatant on OX40-overexpressing cells, goat anti-mouse IgG-PE
measured_metric: Y586通道PE荧光值
# print the numeric value only

>  <binder>
4D9-12 (antibody, V domains shown) VH: QVQLQESGPGLVKPSGTLSLTCAVSGGSISSSNWWSWVRQPPGKGLEWIGEIYHSGNTIYNPSLKSRVTISLDKSKNQFSLKLSSVTAADTAVYYCASSGSLYMDVWGKGTTVTVSS VL: DIQMTQSPSSLLSSVGDRVTISCRASHGSSTYLNWYQQKPGKAPRLLIYGASSLQSGVPSRFSGSGFGTDFILTISSMQPEDFATYYCQQSYSIPITFGQGTRLEIKR

>  <Y586通道PE荧光值>
187000

$$$$

Name the recorded Y586通道PE荧光值 for 35B8-6 (antibody, V domains shown) VH: QITLKESGPTLVKPTQTLTLTCTFSGFSLSTSAVNVGWIRQPHGKALEWLALIFWNDDKRYSPSLKNRLTITKDTSKDQVVLTMSNMDPVDTATYYCAQYNWNSSFDYWGQGTLVTVSS VL: DIQMTQSPSSLSASLGDRVTITCQASQDINTYLNWYQQKPGKAPKVLIYDASNLETGVPSRFSGSGSGTDFTFTISSLQPEDIATFYCQQYDNLITFGGGTKVEIKR .
243000

Where these numbers come from: patent CN114106174A
